Items are presented alongside their recorded IC50.
# EXPERIMENTAL_SYSTEM: EHMT2 (Homo sapiens)
# Construct: host or cells: MDA-MB-231
# Sequence (Q96KQ7 1-1210): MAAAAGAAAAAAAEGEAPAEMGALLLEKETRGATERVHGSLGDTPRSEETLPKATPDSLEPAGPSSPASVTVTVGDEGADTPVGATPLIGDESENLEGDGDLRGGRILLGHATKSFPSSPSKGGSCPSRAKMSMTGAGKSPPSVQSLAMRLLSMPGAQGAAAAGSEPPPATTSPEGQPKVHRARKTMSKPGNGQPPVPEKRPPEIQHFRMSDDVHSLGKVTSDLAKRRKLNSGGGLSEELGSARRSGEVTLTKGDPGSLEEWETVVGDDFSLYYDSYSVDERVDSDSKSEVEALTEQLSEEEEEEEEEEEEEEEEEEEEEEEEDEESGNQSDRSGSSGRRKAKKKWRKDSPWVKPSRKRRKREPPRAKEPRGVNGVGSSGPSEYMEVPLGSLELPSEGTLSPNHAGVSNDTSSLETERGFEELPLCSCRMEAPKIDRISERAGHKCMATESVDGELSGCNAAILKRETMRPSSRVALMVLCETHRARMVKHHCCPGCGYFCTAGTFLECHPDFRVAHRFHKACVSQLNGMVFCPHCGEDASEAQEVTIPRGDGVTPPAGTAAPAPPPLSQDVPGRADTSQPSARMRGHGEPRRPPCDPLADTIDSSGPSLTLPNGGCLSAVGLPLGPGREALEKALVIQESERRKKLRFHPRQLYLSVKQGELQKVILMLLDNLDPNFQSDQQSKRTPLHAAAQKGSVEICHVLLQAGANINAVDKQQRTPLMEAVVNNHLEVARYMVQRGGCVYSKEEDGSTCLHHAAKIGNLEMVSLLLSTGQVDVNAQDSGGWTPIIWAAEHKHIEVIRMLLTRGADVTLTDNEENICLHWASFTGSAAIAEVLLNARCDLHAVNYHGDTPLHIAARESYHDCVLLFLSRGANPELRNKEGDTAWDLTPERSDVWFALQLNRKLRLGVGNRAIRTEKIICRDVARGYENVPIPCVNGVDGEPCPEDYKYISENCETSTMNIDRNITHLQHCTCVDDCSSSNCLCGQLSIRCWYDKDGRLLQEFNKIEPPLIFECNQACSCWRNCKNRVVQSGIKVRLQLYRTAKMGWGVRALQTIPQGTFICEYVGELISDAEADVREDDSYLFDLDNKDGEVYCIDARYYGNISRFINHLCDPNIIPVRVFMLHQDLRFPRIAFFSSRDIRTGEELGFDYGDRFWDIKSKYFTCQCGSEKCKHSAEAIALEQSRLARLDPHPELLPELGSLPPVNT
# TEST: MDA-MB-231 H3K9me2 in-cell Western assay (EHMT2 ICW)
# Type: cell-based
# REPORTED_CONDITIONS: Table II; MDA-MB-231 H3K9me2 in-cell Western; read-out: EHMT2 ICW (IC50 μM)

Given the molecule `COc1ccc(Nc2nccc(NCCCN(C)C(C)=O)n2)cc1OCCCN1CCCC1` and test system EHMT2 (Homo sapiens), the measured IC50 is 1 to 10 µM

Given the molecule `CNc1ccnc(Nc2cccc(OC[C@@H](O)CN3CCCC3)c2)n1` and test system EHMT2 (Homo sapiens), the measured IC50 is > 10 µM

Given the molecule `COc1ccc(Nc2nccc(N(C)CC3CCN(C(C)=O)CC3)n2)cc1OCCCN1CCCC1` and test system EHMT2 (Homo sapiens), the measured IC50 is > 10 µM

Given the molecule `CNCc1cnc(Nc2ccc(OC)c(OCCCN3CCCC3)c2)nc1` and test system EHMT2 (Homo sapiens), the measured IC50 is > 10 µM

Given the molecule `COc1ccc(Nc2nccc(NCC3CCNCC3)n2)cc1OCCCN1CCOCC1` and test system EHMT2 (Homo sapiens), the measured IC50 is > 10 µM

Others:
Given the molecule `COc1ccc(Nc2nccc(-n3nc(C)cc3C)n2)cc1OCCCN1CCCC1` and test system EHMT2 (Homo sapiens), the measured IC50 is > 10 µM

Given the molecule `COc1ccc(Nc2nccc(-n3cc(C)cn3)n2)cc1OCCCN1CCCC1` and test system EHMT2 (Homo sapiens), the measured IC50 is > 10 µM

Given the molecule `COc1ccc(Nc2nccc(NC3CN(C(C)=O)C3)n2)cc1OCCCN1CCCC1` and test system EHMT2 (Homo sapiens), the measured IC50 is 1 to 10 µM

Given the molecule `COc1ccc(Nc2nccc(NCC(C)(C)O)n2)cc1OCCCN1CCCC1` and test system EHMT2 (Homo sapiens), the measured IC50 is 1 to 10 µM

Given the molecule `COc1ccc(Nc2cccc3cn(C)nc23)cc1OCCCN1CCCC1` and test system EHMT2 (Homo sapiens), the measured IC50 is > 10 µM

Given the molecule `c1cc(Nc2nccc(NCC3CCNCC3)n2)cc(OCCCN2CCCC2)c1` and test system EHMT2 (Homo sapiens), the measured IC50 is 1 to 10 µM

Given the molecule `CNc1ccnc(Nc2ccc(OC)c(OCCCN3CC[C@@H](F)C3)c2)n1` and test system EHMT2 (Homo sapiens), the measured IC50 is 1 to 10 µM

Given the molecule `CNc1cc(Nc2ccc(OC)c(OCCCN3CCCC3)c2)ccn1` and test system EHMT2 (Homo sapiens), the measured IC50 is > 10 µM

Recorded values, source patent US20210198277A1.
